# credit: ChEMBL document CHEMBL1131334

System: CEM-SS
Experiment: Compound concentration that provides 50% cytoprotection on CEM-SS cells and HIV-1RF was measured using XTT assay.
Format: functional, cell-based
Details: Homo sapiens
Observed property: EC50

Problem: Please look at this molecule and report its EC50: O=S1(=O)C[C@H](O)[C@H](O)CS1
Result: 6.6 µM

====

Assay: Therapeutic index ([…]) was evaluated
Settings: read-out: TI50
Observed property: selectivity ratio

Solved cases below.
INSERT INTO measurements (compound, observed_property, endpoint_result) VALUES
  ('O=S1(=O)C[C@H](O)[C@H](O)CS1', 'selectivity ratio', 27.9),
  ('NC(=O)/N=N/C(N)=O [E927A]', 'selectivity ratio', '> 5.3');

Problem: Identify measured selectivity ratio corresponding to NS(=O)(=O)c1ccc(NC(=O)c2ccccc2SSc2ccccc2C(=O)Nc2ccc(S(N)(=O)=O)cc2)cc1
Result: > 87
